Tested on: five-mutation introduced D-type amino acid dehydrogenase (Met155Leu, Val159Gly, Thr174Ile, Arg184Met, His230Asn)
Assay: D-amino acid synthesis activity, five-mutation enzyme
Format: biochemical, Numidum massiliense
Conditions: 5 mM 2-oxo acid, 0.1 mM NADPH, 200 mM ammonium chloride, pH 9.5, 50° C.
reported_property: D-amino acid synthesis activity (specific activity), Five-mutation enzyme, NADPH (µmol/min/mg)

molecule: CCCCCCC(=O)C(=O)O [2-oxooctanoic acid]
measurement: 11.2
--
molecule: O=C(O)CC(=O)C(=O)O [2-oxobutanedioic acid]
measurement: 0.39
--
molecule: O=C(O)C(=O)Cc1ccccc1 [2-oxo-3-phenylpropanoic acid]
measurement: 2.7
--
molecule: CC(C)C(=O)C(=O)O [2-oxo-3-methylbutanoic acid]
measurement: 2.4
--
molecule: CCC(C)C(=O)C(=O)O (stereo not shown) [2-oxo-3-methylpentanoic acid]
measurement: 4.0
--
molecule: CC(C)CC(=O)C(=O)O [2-oxo-4-methylpentanoic acid]
measurement: 9.0
--
molecule: CSCCC(=O)C(=O)O [2-oxo-4-(methylthio)butanoic acid]
measurement: 12.3
--
molecule: CCC(=O)C(=O)O [2-oxobutanoic acid]
measurement: 1.6
--
molecule: CC(=O)C(=O)O [2-oxopropanoic acid]
measurement: 0.30
